Procedure Details: label from the status in PepcDB records;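 note: failed if final PepcDB status was selected cloned or expressed and not failed if soluble or beyond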

>  <Seq String>
MNIIMNINSKAKGFVCGAVAAATYGMNPLFTLPLYKEGMSVDSVLFYRYGFAVLILGILMKVQGQSFALKKNEVLPLIVGGLLFSASSLLLFLSYKHMDAGIASTILFVYPVMVALIMFLFFHEKVSLLTVFCILLALSGIGLLYKGEGGETLSLVGMLLVILSSLSYAVYIVGVNHSTLKLMSTAKLTFYALLFGLSIYIVRLNFCSDLQAVPSLPAWGNILAMAFLPTVISLVCTAVSIHTIGSTSTAILGALEPVTALFFGVMIFGERLTPRLMLGILMILVAVTFIVVGKPLMTFLKEEVAGGMKRKLTR

>  <protein production>
failed

$$$$
>  <Seq String>
MDQEAFLRERIEKAQAQLQKLRDENRVLRARQIMWGCIEGTIDVCQLGEKDLQDLSSVIDDYLDSLKSRIEYLKKNGEPSSSLPPRVLQDLNVKEDGDIPSMDGSHHQFETNRLTTITTTADACAPNITNNP

>  <protein production>
failed

$$$$
>  <Seq String>
MSVYLVALIGILILGLYILDLRKHKITTREIIMIGLSVAISYVLYMIPLVRYPQGGGITFFSMLPIMLLSLVYGRTVGVTGGLIFGLLKILNGAFIVHPVQFLLDYILSNMALGLAGSFGIDKKYKIFLGSLMAGSISTFVSIVSGVIFFGQYAPPGMNLWIYSIIYNTSSAGVESLLTAIVITIMPIKMLAKRMKPINNI

>  <protein production>
failed

$$$$

###

Procedure Details: label from the status in PepcDB records
Reported Metric: protein production

Answered examples (4):
>  <Seq String>
MNIEDDENKEKKETCLSYIKKINMSEIINDEAIGKRAEYLWNLALSAVYINVKLSMKYITLIKKITKNNLLFDNICCHYCNLIYIPFYNCKITHSPNQGKATYTCLLCKRKKKINLQHLSKHKNIYPLKHSDKHKPSTSNLSNVNFFLINEIDNYEIKKNNVPLNKDDTSNTENQLITKQENKNEDTLKDVSCADMQKEEHIINQDNIINQDNIINQDNIINQDNIINQDNIINQDNIINQDNIINQDNIINQDNIINQDNIINKNDMYQNLSYLFRIDYGINKDDTQKGNEIYDKSIVNESEKCKSVHIENNKNDDNKNMNSESKNIKNERKRKSQNNNIAQNKNQGFPNVNMNDGFLNFNKSKKKKGKSILDIL

>  <Reported Value>
failed

$$$$
>  <Seq String>
MMTLNAFIEKLSTQPELIEFTETMAVIESHYEFTPTEFANGNTVNLADQNNGSCKIFAFALLNQLSVDQTLACFGQYYRQDVLENPQGDDHQNIRNFMVTGWAGVQFKAQALQAK

>  <Reported Value>
failed

$$$$
>  <Seq String>
RGNLGQSQKVLIEFVSANPTGPLHVGHGRGAAFGATLGNVLKAAGYDVTLEYYVNDAGRQMNILAVSVWLRYLELAGEPIVFPANGYKGQYVYEIAQEIWSEQGNQFVHPWISVVENLPADEPEGGDKETYIDAIIARAQSLLGKDGFANFHQHALKTVLDDIKDDLQAFGVRFDSWFSEQSLFEDGSIEKGIQALKDRGHTYEREGALWFRATDFGDEKDRVLVRANGQTTYFASDVAYHWNKYDRGFDRVIDIFGADHHGYVTRIKTAVKALGHDESALDVILVQFAILYRGGDRVQMSTRSGSFVTLRELREEVGNDAARYFYVARKPEQHMDFDLDLAKSESSDNPVYYIQYAHARICSVLRQLKERGLKWDKDMGL

>  <Reported Value>
failed

$$$$
>  <Seq String>
MTQPSGLKNLLRAAAGALPVVPRTDQLPNRTVTVEELPIDPANVAAYAAVTGLRYGNQVPLTYPFALTFPSVMSLVTGFDFPFAAMGAIHTENHITQYRPIAVTDAVGVRVRAENLREHRRGLLVDLVTNVSVGNDVAWHQVTTFLHQQRTSLSGEPKPPPQKKPKLPPPAAVLRITPAKIRRYAAVGGDHNPIHTNPIAAKLFGFPTVIAHGMFTAAAVLANIEARFPDAVRYSVRFAKPVLLPATAGLYVAEGDGGWDLTLRNMAKGYPHLTATVRGL

>  <Reported Value>
failed

$$$$

query: Which measured protein production value corresponds to MGLEQAVVDFFNHMGLLNLTVGNVVMIIVGLTLVYLAIRYEMEPLLLLPIGISAVLVNLPLSHMANWPLAPQLPPEIQENIFATISYLSQQYGPPGLFDLIYYLLIKTEVVPLLIFFGLGAMTDFGPMIADPKTALLGAAAQIGVFVAMLVALALGFNLKEAASIGIIGGADGPTTIYLTTKLAPHILSATAVAAYSYMSLVPLIQPPVIKALTTPEERRIRMEQLRPVSKREKILFPIASMIVIGLLVPSAAPLIGMLMIGNLFRESGVVQRLSKAAQEELMNIVTIFLGLGIGSTMRAESFLTPKTLMILALGVVAFASATAGGVLFGKIMMKISGGKINPMIGAAGVSAVPMSARVVQRLASEEDPGNFILMHAMGPNVAGVIGTAVVAGVFLSALG ?
result: failed

query: Which measured protein production value corresponds to MSATFSPTAVTDLKDIQDVERLMGRIKEARAAVGEVIFGQEAVVDEVLVTLLAGGHALLIGLPGLAKTKLVQTLGTVVGLRDKRVQFTPDLMPADILGSEVLEEDAAGQRGFRFLPGPVFCQLLMADEINRASPRTQSALLQAMQEHRVSVAGHYHDLPAPFHVLATQNPIEQEGTYPLPEAQLDRFLMQVDVGYPDEAAERRMLAATTGVHQPEARAVMTPAELQAAQALVRRVPVGDSVVDAILSLVRAGRPESSPLPEVRDWVAWGPGPRASQALTLAVRARALLDGRFAPSIEDVIALAHPILRHRMALSFGARADGVTLGRVVDRLIDKIALEHHHHHH ?
result: not failed

query: Which measured protein production value corresponds to MQTPKSRPGSLELPQKKSPLPAPKVVRRLKPSGAESDPKTKTISKTQIPKVVADRRSARIPLNEKKRTGRIPELESTISQLQEELKKAKEELNRSEALKREAQEEAEDAKHQLMDINASEDSRIEELRKLSQERDKTWQSELEAMQRQHGMDSTALSSAINEVQKLKSKLFESESELEQSKYEVRSLEKLVRQLEEERVNSRDSSSSMEVEELKEAMNLSRQEITQLKSAVEAAETRYQEEYIQSTLQIRSAYEQTEAVKSRYSQREAELTEELNRTKDEIEGLRKELMEKVKEDESTGDLKKLESDLMEVRGSLMDKEMELQILRSAMEKKVETANTEAMEAELKRVKIQCEQWRKAAETAASILNNDEERTDSIETSKMLKKFGVLLKKNHK ?
result: failed

query: Which measured protein production value corresponds to MSADGSEYGRYFEQLQKVNLTVRLGDTGSFDGTAAITSLKGSLAWLELFGAEQPPPNTLSEGAEVSVSVWTGGALCRCDGRVETLRDDRQFAIRLVGRVRELQRREYF ?
result: not failed

query: Which measured protein production value corresponds to MVGQIAKEMGLRAYIVGGVVRDILLGKEVWDVDFVVEGNAIELAKELARRHGVNVHPFPEFGTAHLKIGKLKLEFATARRETYPRPGAYPKVEPASLKEDLIRRDFTINAMAISVNLEDYGTLIDYFGGLRDLKDKVIRVLHPVSFIEDPVRILRALRFAGRLNFKLSRSTEKLLKQAVNLGLLKEAPRGRLINEIKLALREDRFLEILELYRKYRVLEEIIEGFQWNEKVLQKLYALRKVVDWHALEFSEERIDYGWLYLLILISNLDYERGKHFLEEMSAPSWVRETYKFMKFKLGSLKEELKKAKENYEVYRLLKPLHTSVLLLLMLEEELKEKIKLYLEKLRKVKLPKEKIEELKKQGLKGKELGERIEELKREIMNKIKLAAALE ?
result: not failed

query: Which measured protein production value corresponds to MLFIPPPLLCLFIAIAMYFLPKIASYSVHFSVIVFVISLSFLIALSSVMQSLYVKPPLILVTLKAQQN ?
result: failed
